Target: APOL1 G1 (Homo sapiens, UniProt O14791, I384M/S342G)
Experiment: Trypanosoma brucei brucei Lysis Assay Using APOL1 Recombinant Protein (AlamarBlue viability readout)
Assay type: cell-based
Conditions: Trypanosome Assay; read-out: Trypanosome Assay Max Activity (%)
Would you kindly list Emax for each of these compounds?
One number for each entry, in %.

For each entry beneath this line, provide reported Emax.
1. Cc1cccnc1[C@@H]1C[C@]2(C[C@H](C)N1)OCCc1cc(Cl)sc12 (racemic)
2. COc1nccc([C@@H]2C[C@]3(C[C@H](C)N2)OCCc2cc(Cl)sc23)n1 (racemic)

Ans:
1. 73
2. 115

---

Target: APOL1 G1 (Homo sapiens, UniProt O14791, I384M/S342G)
Assay: Trypanosoma brucei brucei Lysis Assay Using APOL1 Recombinant Protein (AlamarBlue viability readout)
Format: cell-based
Conditions: Trypanosome Assay; IP50 = IC50 for cell proliferation; read-out: Trypanosome Assay IP50
pIC50: −log10 of the molar value.
Would you kindly list pIC50 for each of these molecules?

C[C@H]1C[C@@]2(C[C@@H](c3ccc(O)c(F)c3)N1)OCCc1cc(Cl)sc12 (stereo in doubt)    > 7.30
C[C@H]1C[C@@]2(C[C@@H](c3ccc4c(c3)n(C)c(=O)n4C)N1)OCCc1cc(Cl)sc12 (racemic)    > 7.30

Shift focus to the following entry.
molecule C[C@H]1C[C@@]2(C[C@@H](c3cnccn3)N1)OCCc1cc(Cl)sc12 (racemic) , pIC50 observed: 6.30 to 7.30

---

Biological target: APOL1 G1 (Homo sapiens, UniProt O14791, I384M/S342G)
Assay: Trypanosoma brucei brucei Lysis Assay Using APOL1 Recombinant Protein (AlamarBlue viability readout)
Format: cell-based
Conditions: Trypanosome Assay; read-out: Trypanosome Assay Max Activity (%)
READOUT_KIND: Emax (%)
Numbers only, in %.

Previously resolved entries follow.
C[C@H]1C[C@@]2(C[C@@H](c3cn(C)nn3)N1)OC[C@H](O)c1cc(Cl)sc12 [Compound 177]    107
CCC(O)Cn1cc([C@@H]2C[C@]3(C[C@H](C)N2)OCCc2cc(Cl)sc23)nn1 (mixture of isomers) [Compound 111]    98.5
CC1CC2(CC(c3cnn(CCS(C)(=O)=O)c3)N1)OCCc1sc(C(F)(F)F)cc12 (stereo not shown) [Compound 9]    108
Cc1cc(C2CC3(CC(C)N2)OCCc2cc(Cl)sc23)ncn1 (stereo not shown) [Compound 43]    103
C[C@H]1C[C@@]2(C[C@@H](c3ccc(C(=O)NC4CC4)cc3)N1)OCCc1cc(Cl)sc12 (racemic) [Compound 71]    104
C[C@H]1C[C@@]2(C[C@@H](c3ncc(C(F)(F)F)[nH]3)N1)OCCc1cc(Cl)sc12 (racemic) [Compound 165]    61

Shift focus to the following entry.
molecule C[C@H]1C[C@@]2(C[C@@H](c3ccc4oc(=O)n(C)c4c3)N1)OCCc1cc(Cl)sc12 (racemic) [Compound 28] , Emax observed: 104

---

Biological target: APOL1 (Homo sapiens)
Sequence (O14791 whole entry S342G/I384M, form open): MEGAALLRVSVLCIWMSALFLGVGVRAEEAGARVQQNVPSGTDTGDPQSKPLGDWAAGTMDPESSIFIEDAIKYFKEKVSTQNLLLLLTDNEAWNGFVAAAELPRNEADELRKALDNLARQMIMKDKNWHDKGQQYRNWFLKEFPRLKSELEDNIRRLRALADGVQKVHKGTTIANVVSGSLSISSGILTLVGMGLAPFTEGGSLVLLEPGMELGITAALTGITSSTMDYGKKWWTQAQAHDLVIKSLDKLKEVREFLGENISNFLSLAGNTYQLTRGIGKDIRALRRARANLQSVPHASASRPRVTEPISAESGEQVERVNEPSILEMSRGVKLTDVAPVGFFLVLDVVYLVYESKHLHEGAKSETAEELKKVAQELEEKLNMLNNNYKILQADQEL
Test: Multi-Tox Assay (MultiTox-Fluor Multiplex Cytotoxicity Assay in tet-inducible APOL1 T-REx-HEK293 cells; Table 46 does not say which APOL1 variant G0/G1/G2)
Assay type: cell-based
Details: APOL1 variant not given
Would you kindly list Multi-Tox Assay Max Activity (%) for each of these compounds?
Answers are plain numbers, in %.

C[C@H]1C[C@@]2(C[C@@H](c3cn(Cc4cccc(O)c4)nn3)N1)OCC(F)(F)c1cc(Cl)sc12 [Compound 320]    95.0
C[C@H]1C[C@@]2(C[C@@H](c3cn(Cc4ccc5nc(O)[nH]c5c4)nn3)N1)OC[C@@H](O)c1cc(Cl)sc12 [Compound 249]    92.0
C[C@H]1C[C@@]2(C[C@@H](c3ccnc(N(C)C)n3)N1)OCCc1cc(Cl)sc12 (racemic) [Compound 127]    99.3
Cc1n[nH]c2ncc([C@@H]3C[C@]4(C[C@H](C)N3)OCCc3cc(Cl)sc34)cc12 (racemic) [Compound 48]    99.0
Cc1cccc(OCC(O)Cn2cc([C@@H]3C[C@]4(C[C@H](C)N3)OC[C@@H](O)c3cc(Cl)sc34)nn2)c1 (stereo partly drawn) [Compound 260]    99.0

For each entry beneath this line, provide reported Multi-Tox Assay Max Activity (%).
1. CC1CC2(CC(c3cn[nH]c3)N1)OCCc1cc(Cl)sc12 (stereo not drawn) [Compound 31]
2. C[C@H]1C[C@@]2(C[C@@H](c3cn(Cc4cccc5c4OCCO5)nn3)N1)OC[C@@H](O)c1cc(Cl)sc12 [Compound 268]

Ans:
100.0
99.0

The reported numbers originate from patent US12421249B2.
